# Test system: U251 CNS
# assay name: NCI tumour cell line growth inhibition, 48 h
endpoint label: TGI

Some solved cases for reference:
C=CCOC(=O)Nc1cccn([C@H](CC(C)C)C(=O)NCCC(C)C)c1=O    > 100 µM
CC(C)c1ccc(/C=C/c2cc(C(=O)NNC(=O)NC3CCCCC3)nc(=S)[nH]2)cc1    > 100 µM

Now turn to the next compound.
Prompt: Name the reported TGI value associated with the compound COc1ccc(/C=C/C(=O)c2sc(-c3cccnc3)nc2C)cc1
Completion: > 100 µM

====

# Test system: DLD-1 colon
# assay name: NCI tumour cell line growth inhibition, 48 h
// values below are reported TGI

CC[PH+](CC)CC.CC[PH+](CC)CC.[Au]    18.9 µM
CC1=C(C(=O)CC(=O)C(=O)Nc2ccc(C)c(C)c2)Sc2ccccc2N1    > 100 µM
COC12OCCN(C)C1=CC(=O)C1(C)N=NCC12 (stereo not given)    > 100 µM
C=C1CC2(CCS(=O)(=O)c3ccccc32)OC1=O (stereo not given)    25.9 µM
CC(C)OP(=O)(OC(C)C)C(=NCCN=C(NNc1ccccc1[N+](=O)[O-])P(=O)(OC(C)C)OC(C)C)NNc1ccccc1[N+](=O)[O-]    > 100 µM
CN(C)C(=NC#N)N(Cc1ccccc1)Cc1ccccc1    > 100 µM
O=C(O)c1c2c(cc3c(=O)cc(-c4ccccc4)oc13)CCCC2    > 100 µM
CN1NC(c2ccccc2)=C(C#N)C(=O)CC1c1ccc(F)cc1 (stereo not given)    > 100 µM
CCCCCCCCCCOC(=O)NCCC    > 100 µM

Prompt: Lab request: please report TGI under test system DLD-1 colon for O=C(O)c1ccc([C@@H]2C(=O)N(O)[C@@H]3C=CC[C@@H]32)cc1
Completion: > 100 µM

====

# System: MALME-3M melanoma
# assay name: NCI tumour cell line growth inhibition, 48 h
endpoint label: TGI (µM)
Expressed in µM, but write only the number.

Prompt: Name the reported TGI value associated with the compound COc1ccc(-c2nc3c(C(=O)NCCN(C)C)cccc3c3ccccc23)cc1
Completion: 8.7

====

// values below are reported TGI
# Test system: OVCAR-8 ovarian
# assay name: NCI tumour cell line growth inhibition, 48 h
Expressed in µM, but write only the number.

N#CC1=C(N)Oc2c(sc3c(Br)cccc23)C1c1ccc(Cl)cc1 (stereo not given)    8.29

Now turn to the next compound.
Prompt: Name the reported TGI value associated with the compound COc1cc(CNc2c3ccccc3nc3ccccc23)cc(OC)c1OC
Completion: 14

====

# Tested on: SF-539 CNS
# assay name: NCI tumour cell line growth inhibition, 48 h; in the data active = GI50 below about 0.43 µM; inactive = the rest
Give one outcome, nothing more. List: 1.0 for active, 0.0 for inactive

Prompt: Given COC(=O)c1oc2c(C(=O)/C=C/c3ccc(OC)cc3)c(OCCN3CCOCC3)ccc2c1C , state the outcome it received in this test.
Completion: 0.0

Prompt: Given CN(C)Cc1c(C(=O)NCCOc2ccc(C(=O)NO)cc2)oc2ccccc12 , state the outcome it received in this test.
Completion: 1.0

Prompt: Given Cc1ccc(OCCOCCOCCOCCOCCOc2ccc(C)n(O)c2=S)c(=S)n1O , state the outcome it received in this test.
Completion: 1.0

Prompt: Given O=C(O)c1cn(C2CC2)c2cc(N3CCN(Cc4c(O)ccc5ccccc45)CC3)c(F)cc2c1=O , state the outcome it received in this test.
Completion: 0.0

Prompt: Given Oc1ccccc1/C=N\NC(=S)N/N=C/c1ccccc1O , state the outcome it received in this test.
Completion: 0.0

Prompt: Given Cn1cc(C2=C(c3cn(CCCCCO)c4ccccc34)C(=O)NC2=O)c2ccccc21 , state the outcome it received in this test.
Completion: 0.0
